Test system: Fibroblast
Assay Text: Multiplex assay against human fibroblast
Format: toxicity, cell-based
Condition Context: 48 h, 1 µM, compound concentration 1 uM, replicate 2
Would you mind telling me the reported Population Tubulin-Different-Phenotype (%) of each entry?

>>> result("CCCCC(=O)N(Cc1ccc(-c2ccccc2-c2nnn[nH]2)cc1)[C@H](C(=O)O)C(C)C")
"33%"
>>> result("COc1ccccc1N1CCN(C[C@@H](C(=O)NC(C)(C)C)c2ccccc2)CC1.Cl.Cl")
"56%"
>>> result("CN[C@@H](C)C(=O)N[C@H](C(=O)N1CCC[C@H]1C(=O)Nc1snnc1-c1ccccc1)C1CCCCC1")
"67%"

Take each entry in turn and give its Population Tubulin-Different-Phenotype (%).
1. C[C@H](N)COC(=O)[C@@H](CCCCN)NC(=O)Cc1c(-c2ccc3ccccc3c2)[nH]c2c1ccc1ccccc12
2. CC(C)COc1ccc(CNC(=O)N(Cc2ccc(F)cc2)C2CCN(C)CC2)cc1
3. CCCCC1=NC2(CCCC2)C(=O)N1Cc1ccc(-c2ccccc2-c2nnn[nH]2)cc1
4. CC(C)(C)c1cc(NC(=O)Nc2ccc(-c3cn4c(n3)sc3cc(OCCN5CCOCC5)ccc34)cc2)no1
5. Br.CS(=O)(=O)Nc1c(O)ccc2c1CCCC2C1=NCCN1 (stereo not drawn)

a:
1. 39%
2. 64%
3. 39%
4. 34%
5. 41%

* * *

Test system: U2OS
Assay Text: Multiplex assay against U2OS
Type: toxicity, cell-based
Condition Context: human, 24 h, 1 µM, compound concentration 1 uM, replicate 1
Value Type: Population Hoechst High Intensity Objects (%)
Include the unit after the number when you answer.

Example entries begin here.
>>> result("CCc1cc2cc(NS(=O)(=O)c3ccc(C#N)cc3)ccc2n(CC)c1=O")
"2%"
>>> result("CCCOc1ccc2[nH]cc(C3=CCNCC3)c2n1.Cl")
"1%"
>>> result("COc1cccc2c1c(NS(=O)(=O)c1ccc(Cl)s1)nn2Cc1cccc(CNC(=O)C(C)(C)O)c1")
"1%"
>>> result("O=C1[C@H](Cc2ccc(O)cc2)N2C(=O)CCN(C(=O)NCc3ccccc3)[C@H]2CN1Cc1cccc2ccccc12")
"2%"
>>> result("COC[C@@H](c1ccc(C(F)(F)F)cc1)N1CCN(C2(C)CCN(C(=O)c3c(C)ncnc3C)CC2)C[C@@H]1C.O=C(O)/C=C\\C(=O)O [VICRIVIROC MALEATE]")
"3%"
>>> result("CC[C@@H](C)Nc1nc(C)nc2c(-c3ccc(OC)nc3C)c(C)nn12 [PEXACERFONT]")
"2%"
>>> result("Cc1noc(-c2ccc(-c3ccc(CC(=O)O)cc3)cc2)c1NC(=O)O[C@H](C)c1ccccc1Cl")
"2%"
>>> result("N#Cc1cc(F)cc(-c2nc(-c3ccc(F)cn3)no2)c1")
"4%"
>>> result("C[C@H](N)COC(=O)[C@@H](CCCCN)NC(=O)Cc1c(-c2ccc3ccccc3c2)[nH]c2c1ccc1ccccc12")
"2%"
>>> result("CCCCC1=NC2(CCCC2)C(=O)N1Cc1ccc(-c2ccccc2-c2nnn[nH]2)cc1 [IRBESARTAN]")
"3%"

Can you give me Population Hoechst High Intensity Objects (%) for all of these, one by one?
1. CCCCCC(O)/C=C/[C@H]1C(=O)CC(O)C1C/C=C\CCCC(=O)O (stereo not given in full)
2. Cc1cnc(-c2cc(N3CCN(C(=O)CCS(C)(=O)=O)CC3)ncc2Cl)c(C)c1
3. O=C(NCCN1CCC(n2c(=O)[nH]c3cc(Cl)ccc32)CC1)c1ccc(F)cc1 [HALOPEMIDE]
4. COc1ccccc1N1CCN(C[C@@H](C(=O)NC(C)(C)C)c2ccccc2)CC1.Cl.Cl
5. NCCc1cn(S(=O)(=O)c2c(Cl)nc3sccn23)c2ccccc12.O=C(O)C(=O)O
6. CC(C)COc1ccc(CNC(=O)N(Cc2ccc(F)cc2)C2CCN(C)CC2)cc1 [PIMAVANSERIN]
7. CC(C)(C)c1cc(NC(=O)Nc2ccc(-c3cn4c(n3)sc3cc(OCCN5CCOCC5)ccc34)cc2)no1 [QUIZARTINIB]
8. Cl.NCCc1ccc(O)c(O)c1 [DOPAMINE HYDROCHLORIDE]

a:
1: 2%; 2: 2%; 3: 1%; 4: 3%; 5: 1%; 6: 2%; 7: 2%; 8: 4%

Please report Population Hoechst High Intensity Objects (%) for every entry that follows.
1. CN1CCN(c2cc(-c3ccccc3)nc(N)n2)CC1
2. Cc1cccc(NC(=O)CN2CCC(c3ccccn3)CC2)c1.Cl.Cl
3. CC(=O)Nc1cccc2c1c(Sc1ccc(Cl)cc1)c(C)n2CC(=O)O [AZD1981]
4. CC(/C=C1\SC(=S)N(CCCC(=O)Nc2ccc(C(=O)O)c(O)c2)C1=O)=C\c1ccccc1

a:
["1%", "3%", "2%", "3%"]

Give Population Hoechst High Intensity Objects (%) for each listed item.
1. CN(C)C(=O)Cn1cc(-c2ccc(-c3cncc4ccccc34)cc2)cn1
2. Cl.N=C(N)NC(=O)Cc1c(Cl)cccc1Cl [GUANFACINE HYDROCHLORIDE]
3. O=C(CCCc1ccccc1)Nc1nc2ccccc2c(=O)s1

a:
3%
3%
1%

* * *

Field: Total Cell Count. Provide a value for each of the molecules that follow.
Test system: Fibroblast
Assay Text: Multiplex assay against human fibroblast
Type: toxicity, cell-based
Condition Context: 48 h, 10 µM, compound concentration 10 uM, replicate 2

>>> result("CC(C)c1noc(N2CCC(COc3ccc(-c4ccc(S(C)(=O)=O)cc4)nc3)CC2)n1")
125
>>> result("CCc1cc2cc(NS(=O)(=O)c3ccc(C#N)cc3)ccc2n(CC)c1=O")
145
>>> result("N#Cc1cc(F)cc(-c2nc(-c3ccc(F)cn3)no2)c1")
110

# map each molecule to its Total Cell Count
1. CC(/C=C1\SC(=S)N(CCCC(=O)Nc2ccc(C(=O)O)c(O)c2)C1=O)=C\c1ccccc1
2. Cc1cccc(NC(=O)CN2CCC(c3ccccn3)CC2)c1.Cl.Cl
3. COC[C@@H](c1ccc(C(F)(F)F)cc1)N1CCN(C2(C)CCN(C(=O)c3c(C)ncnc3C)CC2)C[C@@H]1C.O=C(O)/C=C\C(=O)O [VICRIVIROC MALEATE]

a:
1. 118
2. 109
3. 193

Required: Total Cell Count, one value per molecule below.
1. Cl.N=C(N)NC(=O)Cc1c(Cl)cccc1Cl [GUANFACINE HYDROCHLORIDE]
2. NCCc1cn(S(=O)(=O)c2c(Cl)nc3sccn23)c2ccccc12.O=C(O)C(=O)O
3. Cc1onc(-c2ccccc2Cl)c1C(=O)N(C)c1ccc(Cl)cc1

a:
1. 120
2. 241
3. 166

* * *

Exercise: state measured Population Apoptotic (%) for each of the molecules provided.
System: U2OS
Assay Text: Multiplex assay against U2OS
Type: toxicity, cell-based
Condition Context: human, 24 h, 1 µM, compound concentration 1 uM, replicate 1
Put your answer as a value accompanied by its unit after it.

Some molecules with recorded Population Apoptotic (%):
>>> result("Cc1onc(-c2ccccc2Cl)c1C(=O)N(C)c1ccc(Cl)cc1")
"100%"
>>> result("CC(C)COc1ccc(CNC(=O)N(Cc2ccc(F)cc2)C2CCN(C)CC2)cc1")
"92%"
>>> result("O=C(CCCc1ccccc1)Nc1nc2ccccc2c(=O)s1")
"79%"
>>> result("Cl.NCCc1ccc(O)c(O)c1 [DOPAMINE HYDROCHLORIDE]")
"90%"
>>> result("N#Cc1cc(F)cc(-c2nc(-c3ccc(F)cn3)no2)c1")
"90%"
>>> result("Cc1sc2c(c1C)C(c1ccc(Cl)cc1)=N[C@@H](CC(=O)NCCCCCCCCNC(=O)COc1cccc3c1C(=O)N(C1CCC(=O)NC1=O)C3=O)c1nnc(C)n1-2 (some centres undefined)")
"100%"

Provide Population Apoptotic (%) values for the following items, in order.
1. CCCOc1ccc2[nH]cc(C3=CCNCC3)c2n1.Cl
2. CC(=O)Nc1cccc2c1c(Sc1ccc(Cl)cc1)c(C)n2CC(=O)O
3. Br.CS(=O)(=O)Nc1c(O)ccc2c1CCCC2C1=NCCN1 (centres undefined)
4. CN(C)C(=O)Cn1cc(-c2ccc(-c3cncc4ccccc34)cc2)cn1
5. O=C(NCCN1CCC(n2c(=O)[nH]c3cc(Cl)ccc32)CC1)c1ccc(F)cc1 [HALOPEMIDE]
6. CCCCC(=O)N(Cc1ccc(-c2ccccc2-c2nnn[nH]2)cc1)[C@H](C(=O)O)C(C)C
7. Cc1noc(-c2ccc(-c3ccc(CC(=O)O)cc3)cc2)c1NC(=O)O[C@H](C)c1ccccc1Cl
8. CC(C)(C)c1cc(NC(=O)Nc2ccc(-c3cn4c(n3)sc3cc(OCCN5CCOCC5)ccc34)cc2)no1

a:
["70%", "91%", "76%", "100%", "91%", "86%", "96%", "57%"]

// each listed molecule needs a value for Population Apoptotic (%)
1. CC[C@@H](C)Nc1nc(C)nc2c(-c3ccc(OC)nc3C)c(C)nn12
2. CCCCCC(O)/C=C/[C@H]1C(=O)CC(O)C1C/C=C\CCCC(=O)O (some centres undefined)
3. CC(C)c1noc(N2CCC(COc3ccc(-c4ccc(S(C)(=O)=O)cc4)nc3)CC2)n1

a:
["80%", "86%", "63%"]

List the reported Population Apoptotic (%) of each molecule below.
1. O=C1[C@H](Cc2ccc(O)cc2)N2C(=O)CCN(C(=O)NCc3ccccc3)[C@H]2CN1Cc1cccc2ccccc12
2. CCCCC1=NC2(CCCC2)C(=O)N1Cc1ccc(-c2ccccc2-c2nnn[nH]2)cc1

a:
1: 80%; 2: 70%
